Biological target: HLA-A*0301 (human)
property label: binding affinity ratio (IC50 of standard peptide / IC50 of test peptide)

binder | value
RSPRRRTPSPR (modifications not checked) [HBV NUC 163 peptide …] | -0.0007
RAFPHCLAF (modifications not checked) [HBV POL 528 peptide …] | 0.0015
TSAICSVVRR (modifications not checked) [HBV POL 519 …] | 0.0018
LSTLPETTVVR (modifications not checked) [HBV NUC 169 …] | -0.0009
